Listed here: items and their measured MEAN CORPUSCULAR HEMOGLOBIN.
- Species on record: Rattus norvegicus
- assayProtocol: DrugMatrix - Regimen: Daily Repeat
- Type: toxicity, organism-based, Sprague-Dawley
- Parameters: regimen Daily Repeat, gender Male, age 6-8 weeks
- runConditions: in vivo, po, 0 mg/kg, 72 h, tissue Blood, route oral GAVAGE, dose level Control, time 3 day, vehicle .5 % CMC

# compound, MEAN CORPUSCULAR HEMOGLOBIN / pg
records = [
    ("C1CCC(C(CC2CCCCN2)C2CCCCC2)CC1 (stereo unspecified) [PERHEXILINE]", 20.57),
    ("N=C(N)NCCN1CCCCCCC1 [GUANETHIDINE]", 23.48),
    ("ClC(Cl)Br [BROMODICHLOROMETHANE]", 22.93),
    ("CN1CCN(CCCN2c3ccccc3Sc3ccc(Cl)cc32)CC1 [PROCHLORPERAZINE]", 24.78),
    ("Cc1ccc(/N=C/N(C)/C=N/c2ccc(C)cc2C)c(C)c1 [AMITRAZ]", 24.67),
    ("CC1CC(OC(=O)C(O)c2ccccc2)CC(C)(C)C1 (stereo unspecified) [CYCLANDELATE]", 23.48),
]

###

- Organism: Rattus norvegicus
- assayProtocol: DrugMatrix - Regimen: Daily Repeat
- Type: toxicity, organism-based, Sprague-Dawley
- Parameters: regimen Daily Repeat, gender Male, age 6-8 weeks
- runConditions: in vivo, iv, 0 mg/kg, 120 h, tissue Blood, dose level Control, time 5 day, vehicle 100 % SALINE
Starred links: 1 amine or outer side, 2 acyl side, 3 side chain; linkers in the order of their positions; H or OH if unused. Positions of bridges follow the written chain, without caps; N, C: chain ends. Non-standard residues stand in square brackets, D forms with d. Residues, ends and D or L forms follow the SMILES beside them. Chains are numbered I, II in the order given. Actinocin(9to1) = Cc1c2oc3c(C)ccc(C(=O)[*:1])c3nc-2c(C(=O)[*:2])c(N)c1=O; NMeV = CN[C@H](C(=O)O)C(C)C; Sar = CNCC(=O)O
propertyLabel: LEUKOCYTE COUNT (x10E3/uL)

# molecule, dataValue
rows = [
    ("Cc1ccc(N(CC2=NCCN2)c2cccc(O)c2)cc1", 13.28),
    ("CC[C@]1(O)C[C@H]2CN(CCc3c([nH]c4ccccc34)[C@@](C(=O)OC)(c3cc4c(cc3OC)N(C=O)[C@H]3[C@@](O)(C(=O)OC)[C@H](OC(C)=O)[C@]5(CC)C=CCN6CC[C@]43[C@@H]65)C2)C1", 7.03),
    ("Cc1c2oc3c(C)ccc(C(=O)N[C@@H]4C(=O)N[C@H](C(C)C)C(=O)N5CCC[C@H]5C(=O)N(C)CC(=O)N(C)[C@@H](C(C)C)C(=O)O[C@@H]4C)c3nc-2c(C(=O)N[C@@H]2C(=O)N[C@H](C(C)C)C(=O)N3CCC[C@H]3C(=O)N(C)CC(=O)N(C)[C@@H](C(C)C)C(=O)O[C@@H]2C)c(N)c1=O [DACTINOMYCIN] (I: T[dV]P[Sar][NMeV] / II: T[dV]P[Sar][NMeV]; ester I:1-I:C, II:1-II:C; linker I:N-II:N via Actinocin(9to1))", 13.58),
    ("COc1cc2c3cc1Oc1cc(ccc1O)C[C@@H]1c4c(cc(OC)c(O)c4Oc4ccc(cc4)C[C@@H]3N(C)CC2)CC[N+]1(C)C.[Cl-]", 13.62),
]
